The measurements presented in this section are drawn from PubChem BioAssay AID1361.

Test: blockers of mitochondrial fusion, WT vs mutant – cell-based, chemical genetic, wild-type and mutant, confirmation (AID 1361)
Settings: Cell-based mitochondrial fusion phenotype, imaging, WT cells
Active and inactive are the calls of the source. The rule behind the calls is not given here.
Allowed answers: active, inactive

Check the results log: what was the call for `COc1ccc(/C=C/c2nc3cc(-c4ccccc4)ccc3o2)cc1O` ?
active

Field: outcome | Entry: `CN1CCN(c2nc(-c3cccnc3)nc3ccccc23)CC1`
inactive

Call for entry `C=CCOc1ccc2ccccc2c1CNCCCN1CCOCC1` :
inactive

Answer briefly: the call reported for `Cc1nn(CCC(N)=S)c2nc(-c3cccs3)cc(C(F)(F)F)c12` in this assay.
active

Hello, I am checking results. What call was entered for `NC(=O)COC(=O)c1ccc(Cl)c(S(=O)(=O)N(Cc2ccccc2)c2ccc(Cl)cc2)c1` ?
active

Called result for CCOC(=O)C1=NN(c2ccccc2)C2=NC(C)=C(C(=O)OC)C(c3ccc(C)cc3)N12 (centres undefined)
active

For `O=C(Nc1ccccn1)c1ccco1` , what call appears in the results of this test?
inactive

Field: outcome | Entry: O=S(Cc1ccc(Br)cc1)Cc1nnc(SCc2ccc(Br)cc2)n1-c1ccccc1 (centres undefined)
active

Called result for `CSc1nncn1/N=C/c1ccc2c(c1)OCO2`
inactive

In this assay, the call recorded for `C/C(=N\Nc1nc(N2CCCCCC2)nc(N2CCCCCC2)n1)c1ccccc1` was what?
active

Outcome? `Cc1ccc(C)c(C(=O)COC(=O)c2cc([N+](=O)[O-])ccc2NCCO)c1`
inactive

Hi, sorry to bother you, what did the test record for `COc1ccccc1Nc1ncnc2nc[nH]c12` ?
inactive

What is the recorded call for this molecule in the test? `Cc1csc(NC(=O)c2cccn2C)n1`
inactive

Could you check what this test reported for Cc1cc2c3c(c1)C1(SCC(=O)N1c1ccc(F)cc1)C(=O)N3C(C)(C)CC2C (centres undefined) ?
inactive

Look up the recorded call for `COc1ccc(C2=Nc3cccc4cccc(c34)N2)cc1` in this test.
inactive

# outcome recorded in this test, key = `Clc1ccc2c(c1)C(c1ccccc1Cl)=NCc1nnc(N3CCN(CCSc4ccccc4)CC3)n1-2`
active

Recorded test call requested for `O=C(NCc1ccco1)c1cccnc1-c1nc2ccccc2s1`
inactive

Please let me know the test result on file for O=C1c2ccccc2OC2(C=Cc3ccccc3O2)N1Cc1ccccc1 (centres undefined) .
active

How did this test come out for `CC(C)CCNC(=O)CCCOc1cc(=O)n(C)c2ccccc12` ?
inactive

Please share the test call associated with Cc1cc(Cl)ccc1OC(C)C(=O)Nc1ccccc1N1CCOCC1 (centres undefined) .
active

Called result for `COc1cccc(-c2nc(-c3ccccn3)no2)c1`
inactive

Fill in: this test's call for `Cc1cc(-c2sccc2C)nc(-n2cccc2)n1` is ___
inactive

Recorded call for CCCCC(=O)NC(c1ccc([N+](=O)[O-])cc1)c1c(O)ccc2ccccc12 (centres undefined) ?
inactive

Which result was noted for this molecule in the test: `CC(C)CC(=O)NC(=S)N(Cc1ccccc1)Cc1ccccc1`
active

Call for entry CC(C)(C)N/N=C1\CC(c2ccccc2)Oc2ccccc21 (centres undefined) :
active

Kindly provide the recorded test outcome for the following molecule: `OC1(c2cccc(C(F)(F)F)c2)CCN(c2ncnc3c2[nH]c2ccccc23)CC1`
active

Check the results log: what was the call for `CCc1cc(-c2n[nH]c(=S)n2CC(C)C)cs1` ?
inactive

Tell me the assay call for CCCN(CCC)CCCNC(=O)CS(=O)Cc1nc(-c2ccc(OC)c(OC)c2)oc1C (centres undefined) please.
inactive

Assay result, entry Cc1ncsc1C(=O)Nc1nc2c(s1)CC(C)CC2 (centres undefined) — outcome?
inactive

Fill in: this test's call for `O=C(COC(=O)CCCOc1ccc(Cl)cc1Cl)Nc1cccc(Cl)c1` is ___
inactive

Assay outcome for `CC(C)(C)c1cc(/C=N/O)cc(C(C)(C)C)c1O` : what was it?
inactive

What did the test return for `CCn1c(CNC(=O)c2ccco2)nnc1SCC(=O)Nc1cc(C(F)(F)F)ccc1Cl` ?
inactive

Could you kindly confirm the outcome this assay logged for `Cc1cccc(-c2noc(CN(C(=O)CCc3ccccc3)C(C)C)n2)c1` ?
inactive

State the result this test recorded for Cc1cc(C(=O)CSc2nnc(-c3ccc(Cl)cc3)n2CC2CCCO2)c(C)n1C (centres undefined) .
inactive

Identify the outcome logged in this assay for the molecule shown: `Cn1c(=O)n(C)c2cc([N+](=O)[O-])c(N3CCN(S(=O)(=O)c4ccc(C(C)(C)C)cc4)CC3)cc21`
active

Please let me know the test result on file for C/C(=N\N=C(/N)SC1CC(=O)N(c2cccc(Cl)c2)C1=O)c1cccs1 (centres undefined) .
inactive

What call does the record list for `Cc1cc(C)c(OCC(=O)Nc2nnc(-c3ccco3)o2)c(C)c1` ?
inactive

Returns: the outcome recorded for `CCCn1c2c(c(O)c(C(=O)Nc3nccs3)c1=O)CCCC2` in this assay.
active

What is the recorded call for this molecule in the test? `CCc1nnc(NC(=O)Nc2ccccc2OC)s1`
inactive
